Overview of reported growth AUC across a group of compounds:
- System: Bacteroides thetaiotaomicron
- PROCEDURE_DETAILS: growth AUC relative to DMSO control (median of replicates) (fraction); higher = more growth (less inhibition), active = hit call of the paper
- RUN_PARAMETERS: 20 µM; 24 h
Give your answer as a number; write no unit.

{"COMPOUND": "O=[N+]([O-])C(Br)(CO)CO", "TARGET_UNDER_TEST": "Bacteroides thetaiotaomicron", "growth AUC": 0.962}
{"COMPOUND": "C[C@@H](Oc1ccc(Oc2ncc(C(F)(F)F)cc2Cl)cc1)C(=O)O", "TARGET_UNDER_TEST": "Bacteroides thetaiotaomicron", "growth AUC": 0.992}
{"COMPOUND": "CCOP(=S)(OCC)SCS(=O)(=O)C(C)(C)C", "TARGET_UNDER_TEST": "Bacteroides thetaiotaomicron", "growth AUC": 1.01}
{"COMPOUND": "CCCCCCCCCCCCCN1CC(C)OC(C)C1 (stereo not drawn)", "TARGET_UNDER_TEST": "Bacteroides thetaiotaomicron", "growth AUC": 0.993}
{"COMPOUND": "CCOC(=O)C(Cl)Cc1cc(-n2nc(C)n(C(F)F)c2=O)c(F)cc1Cl (stereo not drawn)", "TARGET_UNDER_TEST": "Bacteroides thetaiotaomicron", "growth AUC": 0.926}

Q: Look up and state reported growth AUC for COP(=S)(OC)Oc1cc(Cl)c(I)cc1Cl
Result: 0.964

Q: Look up and state reported growth AUC for CC1(C)CON(Cc2ccccc2Cl)C1=O
Result: 0.98

Q: Look up and state reported growth AUC for O=C(O)c1cc(Cl)ccc1Cl
Result: 1

Q: Look up and state reported growth AUC for CC(C)c1ccc(NC(=O)N(C)C)cc1
Result: 1.02

Q: Look up and state reported growth AUC for COc1nc(C)nc(NC(=O)NS(=O)(=O)c2ccccc2CCC(F)(F)F)n1
Result: 0.948

Q: Look up and state reported growth AUC for CC(Cl)(Cl)C(=O)O
Result: 1.01

Q: Look up and state reported growth AUC for C#CC(C)(C)NC(=O)c1cc(Cl)cc(Cl)c1
Result: 0.932

Q: Look up and state reported growth AUC for COP(=S)(OC)Oc1ccc(S(=O)(=O)N(C)C)cc1
Result: 0.983
